tested on: Mycobacterium tuberculosis; test: Antimycobacterial activity against multi-drug resistant Mycobacterium tuberculosis Praha 4 after 21 days by microplate dilution method; format: functional; conditions: Praha 4, 504 h
Below, each entry is listed alongside its reported MIC.
Report only the number, with the unit µM understood.

The recorded MIC for CCCCCCCCNc1cnc(C(=O)NCc2ccccc2)cn1 is 8

Please turn your attention to the following entry.
The reported MIC of the molecule CCCCCCNc1cncc(C(=O)NCc2ccccc2)n1 was 32

###

test system: Mycobacterium tuberculosis; assay: Antimycobacterial activity against multi-drug resistant Mycobacterium tuberculosis Praha 131 after 21 days by microplate dilution method; format: functional; conditions: Praha 131, 504 h
Each entry below lists one item and its recorded MIC value.
Quick reminder: number only, in µM, skip the unit.

Observe how each entry below is paired with its result.
Consider CCCCNc1cnc(C(=O)NCc2ccccc2)cn1 . Its measured MIC is 125

So, CCCCCCCCNc1cnc(C(=O)NCc2ccccc2)cn1 ? Its MIC was 4

Lab note: measured MIC of CCCCCNc1cnc(C(=O)NCc2ccccc2)cn1 was 16

Next:
In plain terms, CCCCCCCCNc1cncc(C(=O)NCc2ccccc2)n1 has a documented MIC of 16

Kindly note the recorded MIC for CCCCCCNc1cncc(C(=O)NCc2ccccc2)n1 , which is 32

MIC in this record for NNC(=O)c1ccncc1 : 16

MIC in this record for CCCCNc1nccnc1C(=O)NCc1ccccc1 : 250

# MIC of CCCCCCCNc1cncc(C(=O)NCc2ccccc2)n1 = 16

Value of MIC reported for the compound CCCCCNc1cncc(C(=O)NCc2ccccc2)n1 is 62.5
